Kindly state ELISA signal relative to background for each of the entries shown.
# Test Target: T1, FX activation peptide 12-mer SSSGEAPDSITW (human)
# T1 peptide: SSSGEAPDSITW-biotin
# Test Description: peptide ELISA
Ends that are not written are not given here.
Give bare numbers.

Binder	ELISA signal relative to background
Nb 701B09 (VHH, monovalent Nanobody; also called Nb 701609; not shown: C-terminal FLAG3 and HIS6 tag) VHH: EVQLVESGGGVVQPGGSLRLSCAASGRTFSTYAMGWFRQAPGKEREFVAAISWSGSRTYYADSVKGRFTISRDNSKNTVYLQMNSLRPEDTALYYCAADATPANGELDYWGQGTLVTVSS	0.84

Shifting focus to the binder that follows.
ELISA signal relative to background reading for Nb 729C08 (VHH, monovalent Nanobody; also called Nb 729008; not shown: C-terminal FLAG3 and HIS6 tag) VHH: EVQLVESGGGVVQPGGSLRLSCAASGFTFSDYAMSWVRQAPGKGLEWVSGITGGGRTYYADSVKGRFTISRDNSKNTLYLQMNSLRPEDTALYYCAAAILTRTRRTYDYWGQGTLVTVSS : 1.1
